FYI, the data here is from patent US7101851.

Molecular target: T1, alpha subunit of the human FcεRI receptor (IgE high affinity receptor), expressed on Chinese hamster ovary … (human, UniProt P12319 26-257)
T1 construct: whole, on cells; also called CHO FcεRI+ cells; FcεRIα
T1 sequence (looked up): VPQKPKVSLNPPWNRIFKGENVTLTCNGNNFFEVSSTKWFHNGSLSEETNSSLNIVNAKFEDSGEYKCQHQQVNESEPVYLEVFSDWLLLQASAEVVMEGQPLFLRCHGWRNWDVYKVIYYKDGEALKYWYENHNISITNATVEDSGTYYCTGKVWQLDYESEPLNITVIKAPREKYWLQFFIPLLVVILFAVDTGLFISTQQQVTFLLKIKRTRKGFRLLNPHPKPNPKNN
Assay: inhibition of 125I-IgE binding to CHO cells expressing human FcεRI alpha; competitor IgE
Description: To determine the ability of peptides to inhibit IgE binding to FcεRI, a cell-based binding assay was used with radiolabeled IgE. Chinese hamster ovary cells expressing the alpha subunit of the human FcεRI receptor were cultured overnight in Falcon 96 well microtiter plates at a concentration of 5 ×10^4 cells per well. The following day the cells were rinsed three times with PBS and then once with F12/DMEM. […]
Bridges are numbered along the chain shown (N, C = ends). Where no end group is shown, it is not given here. [ ]: non-standard residue; d: D form. hCys = N[C@@H](CCS)C(=O)O; Ava = NCCCCC(=O)O
Binarize IC50 at 1000 nM; below is yes, at or above is no.

Known results for binders:
VQCPDFCY[Ava]LCPDQCYV-NH2 (disulfide (positions not given here); not fully specified (bridges); printed as VQCPDFCYavaLCPDQCYV-nh2) [IGE201] :: no
VQCPHFCYVGGKALCPDVCDV-NH2 (not fully specified (bridges); cysteine pairing not given here) [IGE150] :: no
VQCPDFCYVGGHALCPDVCYVGR (not fully specified; cysteine pairing not given here, produced as Z-domain fusion in E. coli and released with trypsin) [IGE145] :: yes
VQCPHFCYE[Ava]ELCPDVCYV-NH2 (disulfide (positions not given here); not fully specified (bridges); printed as VQCPHFCYEavaELCPDVCYV-nh2) [IGE187] :: yes
VQCPHF[hCys]YFGGAELCPDVCYV-NH2 (disulfide 7-15, 3-19) [IGE166] :: no
VVCPNMCYVGGKALCPDVCYV-NH2 (not fully specified (bridges); cysteine pairing not given here) [IGE121] :: yes
VQCPKFCY[Ava]LCPDVCYV-NH2 (disulfide (positions not given here); not fully specified (bridges); printed as VQCPKFCYavaLCPDVCYV-nh2) [IGE200] :: no
VQCPKFCYE[Ava]CPDVCYV-NH2 (disulfide (positions not given here); not fully specified (bridges); printed as VQCPKFCYEavaCPDVCYV-nh2; also: dimer) [IGE203] :: no

In the record for VQCPHFCYVGGKALCPDVCYV-NH2 (not fully specified (bridges); cysteine pairing not given here) [IGE122] , is IC50 less than 1000 nM?
yes
